Test: Pharmacokinetics and oral bioavailability of D8.3.p1 and D10.1 in Balb/C female mice (PO, SQ, IV)
Format: in vivo
Details: female, Balb/C, mouse, in vivo, sc, 5 mg/kg, Plasma level
Where a SMILES comes first, the peptide text is derived from it. [ ]: non-standard residue; d: D form. dNMeL = CN[C@H](CC(C)C)C(=O)O
Quantity Measured: level at time molar at 24 h (nM)
Give your result in nM as a bare value.

Can you share its level at time molar at 24 h? I mean this compound: CC[C@@H](C)[C@H]1NC(=O)[C@@H](CC(C)C)NC(=O)[C@@H](CC(C)C)N(C)C(=O)[C@@H]2CCCN2C(=O)[C@@H](C(C)C)NC(=O)[C@H](CC(C)C)NC(=O)[C@@H](CC(C)C)N(C)C(=O)[C@@H]2CCCN2C1=O [Design D8.3.p1, DLEU DVAL PRO *DLEU DLEU DILE PRO *DLEU] (cyclo(L[dV]P[dNMeL][dL][dI]P[dNMeL]))
20
